- target desc: UniProt:P08684
- Sequence (P08684 whole entry): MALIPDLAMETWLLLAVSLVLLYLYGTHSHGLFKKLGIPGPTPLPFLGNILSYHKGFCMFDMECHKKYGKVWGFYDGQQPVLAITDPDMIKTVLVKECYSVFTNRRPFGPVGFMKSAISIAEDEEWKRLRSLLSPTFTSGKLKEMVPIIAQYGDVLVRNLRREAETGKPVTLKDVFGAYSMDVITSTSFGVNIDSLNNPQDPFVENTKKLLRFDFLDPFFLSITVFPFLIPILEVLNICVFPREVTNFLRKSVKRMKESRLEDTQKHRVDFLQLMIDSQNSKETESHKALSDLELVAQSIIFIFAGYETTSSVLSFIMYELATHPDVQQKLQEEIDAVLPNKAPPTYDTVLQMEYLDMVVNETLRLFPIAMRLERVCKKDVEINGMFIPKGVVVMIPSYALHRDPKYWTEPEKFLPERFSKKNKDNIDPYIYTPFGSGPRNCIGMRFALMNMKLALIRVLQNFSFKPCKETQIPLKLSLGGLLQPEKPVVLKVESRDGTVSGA
- test description: CYP3A4 inhibition, probe/drug metabolism in human liver microsomes
- condition context: human, human liver microsomes, pH 7.4, probe midazolam 5 μM, Residual activity (%) CYP3A4, HLM 0.5 mg/mL, midazolam 5 μM, 30 min
Please go through the items and note down their activity at 30 min.
One number for each entry, in %.

Batch lookup, activity at 30 min per entry.
1. CC(=O)OC1C(=O)C2=C(C(=O)CC3C(C)(C)C(=O)CCC23C)C2(C)C(=O)CC(C(C)CC(=O)CC(C)C(=O)O)C12C (stereo not shown)
2. CC(=CC(=O)CC(C)C(=O)O)C1CC(=O)C2(C)C3=C(C(=O)C(O)C12C)C1(C)CCC(=O)C(C)(CO)C1CC3O (stereo not shown)
3. CC(CC(=O)CC(C)C1CC(O)C2(C)C3=C(C(=O)CC12C)C1(C)CCC(=O)C(C)(C)C1CC3)C(=O)O (stereo not shown)
4. CC(=CC(=O)CC(C)C(=O)O)C1CC(=O)C2(C)C3=C(C(=O)CC12C)C1(C)CCC(=O)C(C)(CO)C1CC3O (stereo not shown)
5. CC(CC(=O)CC(C)C1CC(=O)C2(C)C3=C(C(=O)CC12C)C1(C)CCC(=O)C(C)(CO)C1CC3O)C(=O)O (stereo not shown)
6. CC1(C)CCC2(C(=O)O)CCC3(C)C(=CC(=O)C4C5(C)CCC(O)C(C)(C)C5CCC43C)C2C1 (stereo not shown)

A)
1. 93.7
2. 72.6
3. 96.8
4. 84.3
5. 90.8
6. 60.1

Q) # activity at 30 min lookup, item CC(=CC(=O)CC(C)C(=O)O)C1CC(=O)C2(C)C3=C(C(=O)C(O)C12C)C1(C)CCC(O)C(C)(C)C1CC3=O (stereo not shown)
A) 97.6
